meta.source: paper PMC7076352

Test: in vivo
Set-up: species or system Sprague-Dawley (SD) rats
Settings: Sprague-Dawley, plasma; 72 h after oral CNP, rat
measure: concentration at 72 h (ng/mL)
Report only the number, with the unit ng/mL understood.

### Prompt Look up concentration at 72 h: CC(C)=CCC[C@](C)(O[C@@H]1O[C@H](CO[C@@H]2O[C@H](CO)[C@@H](O)[C@H](O)[C@H]2O)[C@@H](O)[C@H](O)[C@H]1O)[C@H]1CC[C@]2(C)[C@@H]1[C@H](O)C[C@@H]1[C@@]3(C)CC[C@H](O[C@@H]4O[C@H](CO)[C@@H](O)[C@H](O)[C@H]4O[C@@H]4O[C@H](CO)[C@@H](O)[C@H](O)[C@H]4O)C(C)(C)[C@@H]3CC[C@]12C [GRb1, ginsenoside Rb1]
### Response 9.62

### Prompt concentration at 72 h for CC(C)=CCC[C@](C)(O[C@@H]1O[C@H](CO)[C@@H](O)[C@H](O)[C@H]1O)[C@H]1CC[C@]2(C)[C@@H]1[C@H](O)C[C@@H]1[C@@]3(C)CC[C@H](O[C@@H]4O[C@H](CO)[C@@H](O)[C@H](O)[C@H]4O[C@@H]4O[C@H](CO)[C@@H](O)[C@H](O)[C@H]4O)C(C)(C)[C@@H]3CC[C@]12C [GRd, ginsenoside Rd] ?
### Response 2.32
